- target under test: von Hippel-Lindau disease tumor suppressor/Estrogen receptor/Cullin-2 (Homo sapiens, UniProt P03372+P40337+Q13617)
- Sequence (P03372 whole entry, looked up): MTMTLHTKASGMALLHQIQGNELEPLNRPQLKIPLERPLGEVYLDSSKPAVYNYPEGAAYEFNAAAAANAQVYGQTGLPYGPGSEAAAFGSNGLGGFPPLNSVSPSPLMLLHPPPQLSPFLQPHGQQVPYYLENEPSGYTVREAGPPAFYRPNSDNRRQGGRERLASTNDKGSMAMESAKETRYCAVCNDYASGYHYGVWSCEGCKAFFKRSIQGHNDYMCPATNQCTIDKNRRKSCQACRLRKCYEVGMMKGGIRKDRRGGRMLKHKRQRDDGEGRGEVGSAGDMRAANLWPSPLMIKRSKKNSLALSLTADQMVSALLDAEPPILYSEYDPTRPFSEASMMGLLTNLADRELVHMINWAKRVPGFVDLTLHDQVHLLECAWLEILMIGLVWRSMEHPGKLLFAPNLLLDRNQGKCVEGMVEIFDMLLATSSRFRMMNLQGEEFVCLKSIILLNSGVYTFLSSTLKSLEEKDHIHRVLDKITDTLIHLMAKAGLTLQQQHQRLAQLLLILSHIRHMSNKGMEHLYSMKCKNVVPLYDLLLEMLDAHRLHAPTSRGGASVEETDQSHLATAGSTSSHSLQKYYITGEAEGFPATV
- Sequence (P40337 whole entry, looked up): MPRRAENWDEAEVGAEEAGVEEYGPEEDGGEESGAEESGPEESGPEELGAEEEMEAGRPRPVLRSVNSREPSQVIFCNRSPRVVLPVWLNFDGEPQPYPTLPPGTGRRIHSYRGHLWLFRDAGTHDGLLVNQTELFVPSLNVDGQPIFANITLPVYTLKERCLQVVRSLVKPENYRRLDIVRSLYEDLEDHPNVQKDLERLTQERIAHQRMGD
- Sequence (Q13617 whole entry, looked up): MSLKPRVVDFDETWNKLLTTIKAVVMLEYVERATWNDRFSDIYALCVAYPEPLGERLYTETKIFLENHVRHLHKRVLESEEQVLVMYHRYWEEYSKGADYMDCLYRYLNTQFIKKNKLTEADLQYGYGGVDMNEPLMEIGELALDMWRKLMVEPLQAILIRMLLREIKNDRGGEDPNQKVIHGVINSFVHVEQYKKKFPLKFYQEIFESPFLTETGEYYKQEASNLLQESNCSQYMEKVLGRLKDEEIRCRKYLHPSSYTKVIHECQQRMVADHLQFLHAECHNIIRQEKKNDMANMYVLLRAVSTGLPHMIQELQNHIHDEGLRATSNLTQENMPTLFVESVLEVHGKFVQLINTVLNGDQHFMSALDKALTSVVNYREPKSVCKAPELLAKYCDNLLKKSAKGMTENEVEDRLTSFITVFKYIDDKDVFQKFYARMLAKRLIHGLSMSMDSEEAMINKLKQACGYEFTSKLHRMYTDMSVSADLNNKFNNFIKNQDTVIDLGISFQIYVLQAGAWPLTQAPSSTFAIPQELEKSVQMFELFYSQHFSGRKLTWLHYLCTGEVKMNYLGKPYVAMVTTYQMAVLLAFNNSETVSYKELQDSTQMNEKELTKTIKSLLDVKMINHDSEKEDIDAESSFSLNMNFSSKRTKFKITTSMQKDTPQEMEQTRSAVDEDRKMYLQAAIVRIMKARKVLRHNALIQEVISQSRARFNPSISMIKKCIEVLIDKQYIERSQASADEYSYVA
- assay summary: Protac activity against VHL/cullin2/ERalpha in human MCF7 cells assessed as ERalpha degradation by measuring ER protein/GADPH ratio at 1 nM after 4 hrs by Western blot analysis relative to control
- Format: cell-based
Here, each record is paired with measured Ratio data.
quantity: Ratio

[[record]]
chemical_smiles = "CCN(CCCCCCC(=O)N[C@H](C(=O)N1C[C@H](O)C[C@H]1C(=O)N[C@@H](C)c1ccc(-c2scnc2C)cc1)C(C)(C)C)CCOc1ccc(C(=O)c2c(-c3ccc(O)cc3)sc3cc(O)ccc23)cc1"
quantitative_result = 32

[[record]]
chemical_smiles = "CCN(CCCCCCCC(=O)N[C@H](C(=O)N1C[C@H](O)C[C@H]1C(=O)N[C@@H](C)c1ccc(-c2scnc2C)cc1)C(C)(C)C)CCOc1ccc(Cn2c(-c3ccc(O)cc3)c(C)c3cc(O)ccc32)cc1"
quantitative_result = 74

[[record]]
chemical_smiles = "CCN(CCCCCCCC(=O)N[C@H](C(=O)N1C[C@H](O)C[C@H]1C(=O)N[C@@H](C)c1ccc(C(C)(C)C)cc1)C(C)(C)C)CCOc1ccc(C(=O)c2c(-c3ccc(O)cc3)sc3cc(O)ccc23)cc1"
quantitative_result = 136

[[record]]
chemical_smiles = "CCN(CCCCCCCC(=O)N[C@H](C(=O)N1C[C@H](O)C[C@H]1C(=O)N[C@@H](C)c1ccc(C#N)cc1)C(C)(C)C)CCOc1ccc(C(=O)c2c(-c3ccc(O)cc3)sc3cc(O)ccc23)cc1"
quantitative_result = 110

[[record]]
chemical_smiles = "CCN(CCCCCCCC(=O)N[C@H](C(=O)N1C[C@H](O)C[C@H]1C(=O)N[C@@H](C)c1ccc(C2CC2)cc1)C(C)(C)C)CCOc1ccc(C(=O)c2c(-c3ccc(O)cc3)sc3cc(O)ccc23)cc1"
quantitative_result = 130


====

Below, each of the compounds is paired with its reported Ratio value.
- target under test: von Hippel-Lindau disease tumor suppressor/Estrogen receptor/Cullin-2 (Homo sapiens, UniProt P03372+P40337+Q13617)
- assay summary: Protac activity against VHL/cullin2/ERalpha in human MCF7 cells assessed as ERalpha degradation by measuring ER protein/GADPH ratio at 1 nM after 4 hrs by Western blot analysis relative to control
- Type: cell-based
quantity: Ratio

[[record]]
chemical_smiles = "CCC(=C(c1ccccc1)c1ccc(OCCN(CC)CCCCCCCC(=O)N[C@H](C(=O)N2C[C@H](O)C[C@H]2C(=O)N[C@@H](C)c2ccc(-c3scnc3C)cc2)C(C)(C)C)cc1)c1ccccc1"
quantity = "Ratio"
quantitative_result = 103

[[record]]
chemical_smiles = "Cc1ncsc1-c1ccc([C@H](C)NC(=O)[C@@H]2C[C@@H](O)CN2C(=O)[C@@H](NC(=O)CCCCCCCN(CCOc2ccc(C(=O)c3c(-c4ccc(O)cc4)sc4cc(O)ccc34)cc2)C2CCC2)C(C)(C)C)cc1"
quantity = "Ratio"
quantitative_result = 15

[[record]]
chemical_smiles = "CCN(CCOCCOCCC(=O)N[C@H](C(=O)N1C[C@H](O)C[C@H]1C(=O)N[C@@H](C)c1ccc(-c2scnc2C)cc1)C(C)(C)C)CCOc1ccc(C(=O)c2c(-c3ccc(O)cc3)sc3cc(O)ccc23)cc1"
quantity = "Ratio"
quantitative_result = 183

[[record]]
chemical_smiles = "CCN(CCCCCCCC(=O)N[C@H](C(=O)N1C[C@H](O)C[C@H]1C(=O)N[C@@H](C)c1ccc(-c2scnc2C)cc1)C(C)(C)C)CCOc1ccc(C(=O)c2c(-c3ccc(O)cc3)sc3cc(O)ccc23)cc1"
quantity = "Ratio"
quantitative_result = 21

[[record]]
chemical_smiles = "CCC(=C(c1ccc(O)cc1)c1ccc(OCCN(CC)CCCCCCCC(=O)N[C@H](C(=O)N2C[C@H](O)C[C@H]2C(=O)N[C@@H](C)c2ccc(-c3scnc3C)cc2)C(C)(C)C)cc1)c1ccccc1"
quantity = "Ratio"
quantitative_result = 55

